# System Name: LIMK1 (Homo sapiens)
# Sequence (P53667 whole entry): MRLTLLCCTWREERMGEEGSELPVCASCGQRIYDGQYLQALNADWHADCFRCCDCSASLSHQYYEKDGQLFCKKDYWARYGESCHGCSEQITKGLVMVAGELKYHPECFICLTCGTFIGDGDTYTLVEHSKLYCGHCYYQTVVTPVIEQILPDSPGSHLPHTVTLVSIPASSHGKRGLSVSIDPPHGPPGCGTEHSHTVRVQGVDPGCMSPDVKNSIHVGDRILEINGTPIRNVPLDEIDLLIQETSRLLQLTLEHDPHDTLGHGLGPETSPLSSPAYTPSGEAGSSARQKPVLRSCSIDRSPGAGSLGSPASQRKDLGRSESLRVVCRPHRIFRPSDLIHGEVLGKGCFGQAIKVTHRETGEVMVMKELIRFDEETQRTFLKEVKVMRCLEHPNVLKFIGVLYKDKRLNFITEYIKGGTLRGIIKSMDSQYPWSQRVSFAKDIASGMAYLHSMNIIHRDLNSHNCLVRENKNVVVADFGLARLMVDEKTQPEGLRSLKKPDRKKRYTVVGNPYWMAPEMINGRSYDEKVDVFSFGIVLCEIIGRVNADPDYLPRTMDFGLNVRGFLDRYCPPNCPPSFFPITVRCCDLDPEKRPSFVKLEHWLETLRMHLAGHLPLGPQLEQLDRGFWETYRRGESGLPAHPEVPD
# Assay: RapidFire mass spectrometry kinase assay (cofilin phosphorylation)
# Format: biochemical
# Test Conditions: non-phosphorylated LIMK1; mean ± SEM; read-out: Enzymatic (RapidFire) pIC50 LIMK1 (converted)
Quantity Measured: IC50 (µM)

Worked cases, IC50 given:
Compound | Quantity Measured | Reported
CCCCN(Cc1ccc(CCC(=O)O)cc1)C(=O)c1ccc(S(=O)(=O)Nc2ccccc2)cc1 [Compound 48] | IC50 | 0.166
C[C@H](c1ccccc1)N(CC1CC1)C(=O)c1ccc(S(=O)(=O)Nc2ccccc2)cc1 [Compound 65] | IC50 | 4.9

A: CCCCN(Cc1ccccc1)C(=O)c1ccc(S(=O)(=O)NC2CCC2)cc1 [Compound 37]
B: CCCCN(Cc1ccccc1)C(=O)c1ccc(S(=O)(=O)Nc2ccccc2)cc1C [Compound 22]
C: CCCCN(Cc1ccccc1)C(=O)c1ccc(S(=O)(=O)Nc2ccccc2)cc1F [Compound 21]
Challenge: Order the items by recorded IC50; the first position goes to the largest value. Output the labels ranked as instructed.
Response given: A, B, C

====

// reported microsomal CLint at 2 μM per item
# Assay: Microsomal stability
# Test Conditions: rat, microsomes, pH 7.4
Express it in µL/min/mg; write the number only.

Reference set, count: 3
Sample Smiles | Quantity Measured | Reported
O=C(c1ccc(S(=O)(=O)Nc2ccccc2)cc1)N(CCCn1ccnc1)Cc1ccccc1 | microsomal CLint at 2 μM | 158
N#CCCN(Cc1ccncc1)C(=O)c1ccc(S(=O)(=O)Nc2ccccc2)cc1 | microsomal CLint at 2 μM | 81
O=C(c1ccc(S(=O)(=O)Nc2ccccc2)cc1)N(Cc1ccc(CCc2nnn[nH]2)cn1)CC1CC1 | microsomal CLint at 2 μM | 12

Challenge: Any idea what its microsomal CLint at 2 μM is? The compound is "CCCCN(Cc1ccc(CCC(=O)O)cc1)C(=O)c1ccc(S(=O)(=O)Nc2ccccc2)cc1"
Response given: 18

Challenge: Can you share its microsomal CLint at 2 μM? I mean this compound: "CCCCN(Cc1ccc(OC)cc1)C(=O)c1ccc(S(=O)(=O)Nc2ccccc2)cc1"
Response given: 978

Challenge: microsomal CLint at 2 μM for "CCN(Cc1ccc(NCCO)cn1)C(=O)c1ccc(S(=O)(=O)Nc2ccccc2)cc1" ?
Response given: 51

Challenge: Quick one: microsomal CLint at 2 μM for "CCCCN(Cc1ccc2[nH]ccc2c1)C(=O)c1ccc(S(=O)(=O)Nc2ccccc2)cc1" ?
Response given: 357

====

Listed below: microsomal CLint at 2 μM values for each entry.
# Assay: Microsomal stability
# Test Conditions: rat, microsomes, pH 7.4
Please state the figure in µL/min/mg; there is no need to write the unit.

Compound | Reported
O=C(c1ccc(S(=O)(=O)Nc2ccccc2)cc1)N(Cc1ccc2[nH]ccc2c1)CC1CC1 [Compound 61] | 802
CN(C)CCNc1ccc(CN(CC2CC2)C(=O)c2ccc(S(=O)(=O)Nc3ccccc3)cc2)nc1 [Compound 78] | 31
Cc1nc(CN(CC2CC2)C(=O)c2ccc(S(=O)(=O)Nc3ccccc3)cc2)ccc1NCCO [Compound 82] | 221

// below: microsomal CLint at 2 μM requested for another compound
Challenge: Quick check: microsomal CLint at 2 μM of O=C(c1ccc(S(=O)(=O)Nc2ccccc2)cc1)N(Cc1ccccc1)CC1(Cn2ccnc2)CC1 [Compound 60] ?
Response given: 395
